Target Under Test: TAAR1 (Mus musculus (Mouse))
Sequence (Q923Y8 whole entry): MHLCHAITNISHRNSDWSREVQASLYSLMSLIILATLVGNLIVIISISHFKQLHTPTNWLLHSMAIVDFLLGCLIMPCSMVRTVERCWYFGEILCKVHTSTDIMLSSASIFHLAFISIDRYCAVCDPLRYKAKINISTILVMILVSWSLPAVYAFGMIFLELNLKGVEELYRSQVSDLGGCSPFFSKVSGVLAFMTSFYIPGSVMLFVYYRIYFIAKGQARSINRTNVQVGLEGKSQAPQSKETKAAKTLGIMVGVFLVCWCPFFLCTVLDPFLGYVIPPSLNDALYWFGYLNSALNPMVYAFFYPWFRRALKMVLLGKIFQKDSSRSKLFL
Assay Remarks: TAAR1 radioligand binding assay ([3H]-rac-2-(1,2,3,4-tetrahydro-1-naphthyl)-2-imidazoline, membranes of stably transfected HEK293 cells)
Recorded Conditions: read-out: Ki (μM) mouse; mouse TAAR1; radioligand [3H]-rac-2-(1,2,3,4-tetrahydro-1-naphthyl)-2-imidazoline at 60 nM; 4° C., 30 minutes
Measured Attribute: Ki (µM)

Check out these entries, answers already filled in.
Molecule: Fc1ccc(NCc2cnc[nH]2)cc1Br [Example 183]
Ki [µM]: 0.0051
--
Molecule: CC(C1CC1)N(Cc1cnc[nH]1)c1cccc(Cl)c1 (stereo not shown) [Example 52]
Ki [µM]: 0.004
--
Molecule: CC(C)N(Cc1cnc[nH]1)c1cc(F)cc(Cl)c1 [Example 76]
Ki [µM]: 0.0011
--
Molecule: CC(C)N(Cc1cnc[nH]1)c1ccc(F)c(F)c1 [Example 77]
Ki [µM]: 0.0053
--
Molecule: c1ccc(Nc2ccc(NCc3cnc[nH]3)cc2)cc1 [Example 155]
Ki [µM]: 0.0094

[A] CCN(Cc1cnc[nH]1)c1cc(F)cc(F)c1 [Example 306]
[B] CN(Cc1cnc[nH]1)c1ccc(Cl)cc1 [Example 10]
Inquiry: Looking at recorded values for Ki, does A or B come in lower? To answer, give the label that identifies your chosen option.
Reply text: A

====

Target Under Test: TAAR1 (Mus musculus (Mouse))
Assay Remarks: TAAR1 radioligand binding assay ([3H]-rac-2-(1,2,3,4-tetrahydro-1-naphthyl)-2-imidazoline, membranes of stably transfected HEK293 cells)
Recorded Conditions: read-out: Ki (μM) mouse; mouse TAAR1; radioligand [3H]-rac-2-(1,2,3,4-tetrahydro-1-naphthyl)-2-imidazoline at 60 nM; 4° C., 30 minutes
Measured Attribute: Ki (µM)

Molecule: CCN(Cc1cnc[nH]1)c1cccc(OC(F)F)c1 [Example 195]
Ki, µM: 0.0042
--
Molecule: Cc1cccc(N(Cc2cnc[nH]2)C(C)C)c1 [Example 26]
Ki, µM: 0.0034

[P] CN(Cc1cnc[nH]1)c1ccc(F)c(F)c1 [Example 287]
[Q] FC(F)(F)c1cc(Br)cc(NCc2cnc[nH]2)c1 [Example 226]
Inquiry: Looking at recorded values for Ki, does P or Q come in lower? To answer, give the label that identifies your chosen option.
Reply text: Q
